Target: T1, DHX36 (RHAU) (UniProt Q9H2U1 1-1008)
T1 sequence: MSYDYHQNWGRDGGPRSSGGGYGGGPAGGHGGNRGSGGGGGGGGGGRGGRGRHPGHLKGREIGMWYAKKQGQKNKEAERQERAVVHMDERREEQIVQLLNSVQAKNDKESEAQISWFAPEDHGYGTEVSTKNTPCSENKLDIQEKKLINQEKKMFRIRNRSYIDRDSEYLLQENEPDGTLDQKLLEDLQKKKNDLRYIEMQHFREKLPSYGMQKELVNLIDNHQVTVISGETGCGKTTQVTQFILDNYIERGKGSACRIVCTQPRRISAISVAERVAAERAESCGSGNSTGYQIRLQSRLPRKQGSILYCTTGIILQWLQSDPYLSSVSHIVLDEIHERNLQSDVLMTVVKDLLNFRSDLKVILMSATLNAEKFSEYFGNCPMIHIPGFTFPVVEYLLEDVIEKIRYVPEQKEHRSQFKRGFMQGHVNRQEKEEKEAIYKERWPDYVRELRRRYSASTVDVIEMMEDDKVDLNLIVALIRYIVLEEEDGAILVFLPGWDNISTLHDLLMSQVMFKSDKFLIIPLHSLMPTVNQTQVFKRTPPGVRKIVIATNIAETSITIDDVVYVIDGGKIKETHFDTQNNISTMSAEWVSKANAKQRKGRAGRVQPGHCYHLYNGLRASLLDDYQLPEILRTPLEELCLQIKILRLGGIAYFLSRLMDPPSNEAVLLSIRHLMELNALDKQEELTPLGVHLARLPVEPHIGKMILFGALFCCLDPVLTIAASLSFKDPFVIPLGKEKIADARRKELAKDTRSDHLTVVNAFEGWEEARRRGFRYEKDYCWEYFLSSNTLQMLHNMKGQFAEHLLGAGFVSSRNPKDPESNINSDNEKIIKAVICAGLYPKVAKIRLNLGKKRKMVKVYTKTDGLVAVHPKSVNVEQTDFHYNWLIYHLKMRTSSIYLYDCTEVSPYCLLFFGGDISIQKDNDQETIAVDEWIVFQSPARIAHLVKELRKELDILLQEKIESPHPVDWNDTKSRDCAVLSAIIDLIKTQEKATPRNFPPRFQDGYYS
Experiment: MST; EMSA and MST: 25 mM Tris-HCl pH 7.5, 150 mM KCl, 1 mM MgCl2, 37 C 30 min; 30 nM (EMSA) or 40 nM (MST) FAM-oligo; EMSA gel 10% native PAGE, 0.5x TBE, 4 C
Conditions: protein: recombinant; label: 5'-FAM; G4
pKd: −log10 of the molar value.

{"binder": "GGGCCGGCGGUGGGAGCGGAGUGGGUCGGGCGGGG (structured_RNA) [FAM_Gnai2 rG4 WT]", "pKd": 7.42}
{"binder": "CGGGGCGGGUGGGGAGGGGU (structured_RNA, printed with T although called rG4) [FAM_APP rG4 WT]", "pKd": 7.71}
